As shown below, each of these compounds has a reported Spleen value.
System: PC-3 PIP/flu tumor-bearing mice
test.details: Biodistribution studies in PC-3 PIP/flu tumor-bearing mice
measurement.context: 4 h p.i.
Number only, in % IA/g; omit the unit.

The cases that follow already have their Spleen on record.
[
  {
    "compound": "Cc1ccc(CCCC(=O)NC(CC(=O)NC(CC(=O)NC(CC(=O)NC(CCCCNC(=O)CN2CCN(CC(=O)O)CCN(CC(=O)O)CCN(CC(=O)O)CC2)C(=O)NCC2CCC(C(=O)NC(Cc3ccc4ccccc4c3)C(=O)NCCCCC(NC(=O)NC(CCC(=O)O)C(=O)O)C(=O)O)CC2)C(=O)O)C(=O)O)C(=O)O)cc1 (stereo not shown) [^177Lu-PSMA-ALB-08, metal not drawn]",
    "study.target": "PC-3 PIP/flu tumor-bearing mice",
    "Spleen (% IA/g)": 0.53
  },
  {
    "compound": "O=C(O)CCC(NC(=O)NC(CCCCNC(=O)C(Cc1ccc2ccccc2c1)NC(=O)C1CCC(CNC(=O)C(CCCCNC(=O)CCCc2ccc(I)cc2)NC(=O)CN2CCN(CC(=O)O)CCN(CC(=O)O)CCN(CC(=O)O)CC2)CC1)C(=O)O)C(=O)O (stereo not shown) [^177Lu-PSMA-ALB-03, metal not drawn]",
    "study.target": "PC-3 PIP/flu tumor-bearing mice",
    "Spleen (% IA/g)": 4.76
  },
  {
    "compound": "O=C(O)CCC(NC(=O)NC(CCCCNC(=O)C(Cc1ccc2ccccc2c1)NC(=O)C1CCC(n2cc(CC(NC(=O)CN3CCN(CC(=O)O)CCN(CC(=O)O)CCN(CC(=O)O)CC3)C(=O)NC(CCCCNC(=O)CCCc3ccc(I)cc3)C(=O)O)nn2)CC1)C(=O)O)C(=O)O (stereo not shown) [^177Lu-PSMA-ALB-01, metal not drawn]",
    "study.target": "PC-3 PIP/flu tumor-bearing mice",
    "Spleen (% IA/g)": 5.34
  }
]

Now consider a different compound.
Reported Spleen, compound O=C(O)CCC(NC(=O)NC(CCCCNC(=O)C(Cc1ccc2ccccc2c1)NC(=O)C1CCC(CNC(=O)C(CCCCNC(=O)CN2CCN(CC(=O)O)CCN(CC(=O)O)CCN(CC(=O)O)CC2)NC(=O)CC(NC(=O)CC(NC(=O)CCCc2ccc(I)cc2)C(=O)O)C(=O)O)CC1)C(=O)O)C(=O)O (stereo not shown) [^177Lu-PSMA-ALB-05, metal not drawn] : ____ 3.29

---

Tested on: PC-3 PIP/flu tumor-bearing mice
test.details: Biodistribution studies in PC-3 PIP/flu tumor-bearing mice
measurement.context: 4 h p.i.
property.label: Muscle (% IA/g)
Report as a plain number; the unit % IA/g is understood.

Use the examples below as a reference point.
[
  {
    "molecule": "O=C(O)CCC(NC(=O)NC(CCCCNC(=O)C(Cc1ccc2ccccc2c1)NC(=O)C1CCC(n2cc(CC(NC(=O)CN3CCN(CC(=O)O)CCN(CC(=O)O)CCN(CC(=O)O)CC3)C(=O)NC(CCCCNC(=O)CCCc3ccc(I)cc3)C(=O)O)nn2)CC1)C(=O)O)C(=O)O (stereo not shown) [^177Lu-PSMA-ALB-01, metal not drawn]",
    "Muscle [% IA/g]": 2.06
  },
  {
    "molecule": "Cc1ccc(CCCC(=O)NCCCCC(NC(=O)CN2CCN(CC(=O)O)CCN(CC(=O)O)CCN(CC(=O)O)CC2)C(=O)NCC2CCC(C(=O)NC(Cc3ccc4ccccc4c3)C(=O)NCCCCC(NC(=O)NC(CCC(=O)O)C(=O)O)C(=O)O)CC2)cc1 (stereo not shown) [^177Lu-PSMA-ALB-06, metal not drawn]",
    "Muscle [% IA/g]": 1.60
  },
  {
    "molecule": "O=C(O)CCC(NC(=O)NC(CCCCNC(=O)C(Cc1ccc2ccccc2c1)NC(=O)C1CCC(CNC(=O)C(CCCCNC(=O)CN2CCN(CC(=O)O)CCN(CC(=O)O)CCN(CC(=O)O)CC2)NC(=O)CC(NC(=O)CC(NC(=O)CC(NC(=O)CCCc2ccc(I)cc2)C(=O)O)C(=O)O)C(=O)O)CC1)C(=O)O)C(=O)O (stereo not shown) [^177Lu-PSMA-ALB-07, metal not drawn]",
    "Muscle [% IA/g]": 0.78
  }
]

Param item = Cc1ccc(CCCC(=O)NCCCCC(NC(=O)CN2CCN(CC(=O)O)CCN(CC(=O)O)CCN(CC(=O)O)CC2)C(=O)NCC2CCC(C(=O)NC(Cc3ccc4ccccc4c3)C(=O)NCCCCC(NC(=O)NC(CCC(=O)O)C(=O)O)C(=O)O)CC2)cc1 (stereo not shown) [44Sc-PSMA-ALB-06, metal not drawn] ; retrieve measured Muscle. 2.24
